Data credit: PubChem BioAssay AID1845202

system: DMS 114 tumor spheroids, viability % test/control; test: Anticancer human tumor DMS 114 cell line growth inhibition; conditions: second compound 31.6 µM; first compound 3.16 µM; stronger effect = lower value; spheroids with HUVEC and MSC;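 also: luminescence used as a proxy for viable cells; spheroids exposed to compounds for 7 days before read-out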
With a cut-off of 70%, any viability, T/C strictly below it is called t; any viability, T/C meeting it or above is called f.

As a guide, the following entries are already answered.
is_below(viability, T/C, 70%) for Cc1cc(C)c(CNC(=O)c2cc(-c3ccc(CN4CCOCC4)cc3)cc3c2cnn3C2CCCC2)c(=O)[nH]1 + Cn1nnc2c(C(N)=O)ncn2c1=O ?
f

For this compound, is viability, T/C lower than 70%? CC1COCCN1c1cc(-c2ccnn2C)c2ccnc(-c3ccn[nH]3)c2n1 (stereo unspecified) + Cn1nnc2c(C(N)=O)ncn2c1=O
t

Does [2H]c1nc(C)nc([2H])c1-c1cc(NC[C@@H](C)c2cccc3c(C(=O)NC)ccnc23)ncn1 + Cn1nnc2c(C(N)=O)ncn2c1=O have viability, T/C strictly under 70%?
f

// next entry
Lab note: confirm whether the reported viability, T/C for this compound is below 70%, equality not counting. compound: COc1ccc([C@@H](O)c2cc(-c3ncnc4cc(N5CCOCC5)ccc34)c(F)cc2Cl)nn1 + Cn1nnc2c(C(N)=O)ncn2c1=O
f
